# maps each entry to its TI B/LEE/40
# System: influenza B virus B/Lee/40
# ASSAY_DETAILS: In vitro antiviral bioassay (CPE reduction, SRB) in MDCK cells
# Type: cell-based
# EXPERIMENTAL_CONDITIONS: Therapeutic index, TI = CC50/IC50

{"MOLECULE": "CCOc1ccc2nc(NCCCCCOc3c(OC)ccc4cc5[n+](cc34)CCc3cc4c(cc3-5)OCO4)sc2c1", "TARGET_ENTITY": "influenza B virus B/Lee/40", "TI B/LEE/40": 5.712}
{"MOLECULE": "COc1ccc2cc3[n+](cc2c1OCCCCCNc1nc2ccc(C)cc2s1)CCc1cc2c(cc1-3)OCO2", "TARGET_ENTITY": "influenza B virus B/Lee/40", "TI B/LEE/40": 7.406}
{"MOLECULE": "COc1ccc2cc3[n+](cc2c1OCCCCCNc1nc2ccc([N+](=O)[O-])cc2s1)CCc1cc2c(cc1-3)OCO2", "TARGET_ENTITY": "influenza B virus B/Lee/40", "TI B/LEE/40": 5.516}
{"MOLECULE": "COc1ccc2nc(NCCCCCOc3c(OC)ccc4cc5[n+](cc34)CCc3cc4c(cc3-5)OCO4)sc2c1", "TARGET_ENTITY": "influenza B virus B/Lee/40", "TI B/LEE/40": 8.294}
{"MOLECULE": "COc1ccc2cc3[n+](cc2c1OCCCCCNc1nc2ccc(Br)cc2s1)CCc1cc2c(cc1-3)OCO2", "TARGET_ENTITY": "influenza B virus B/Lee/40", "TI B/LEE/40": 4.395}
{"MOLECULE": "COc1ccc2cc3[n+](cc2c1OCCCCCNc1nc2ccc(I)cc2s1)CCc1cc2c(cc1-3)OCO2", "TARGET_ENTITY": "influenza B virus B/Lee/40", "TI B/LEE/40": 4.331}
{"MOLECULE": "CCOC(=O)C1=C[C@@H](OC(CC)CC)[C@H](NC(C)=O)[C@@H](N)C1 [OSELTAMIVIR, Oseltamivir phosphate, reference compound]", "TARGET_ENTITY": "influenza B virus B/Lee/40", "TI B/LEE/40": 3.67}

====

# TARGET_ENTITY: influenza virus neuraminidase (Influenza A virus)
# Sequence (P03468 whole entry, looked up): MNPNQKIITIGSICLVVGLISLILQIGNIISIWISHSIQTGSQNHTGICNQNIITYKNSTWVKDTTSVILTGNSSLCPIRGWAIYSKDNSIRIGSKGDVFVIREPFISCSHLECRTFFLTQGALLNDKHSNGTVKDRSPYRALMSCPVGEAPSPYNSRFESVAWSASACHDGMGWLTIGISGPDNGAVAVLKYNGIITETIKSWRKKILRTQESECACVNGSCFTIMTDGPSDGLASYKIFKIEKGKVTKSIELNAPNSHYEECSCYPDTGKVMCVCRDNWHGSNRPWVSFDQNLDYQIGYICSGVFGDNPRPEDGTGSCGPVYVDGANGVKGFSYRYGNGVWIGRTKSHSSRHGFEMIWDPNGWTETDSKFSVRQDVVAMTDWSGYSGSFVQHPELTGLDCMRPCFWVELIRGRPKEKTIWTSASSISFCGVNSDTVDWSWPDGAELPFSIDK
# ASSAY_DETAILS: Viral neuraminidase inhibition assay (NA-Star kit)
# Assay type: biochemical, influenza A/PR/8/34 virus
# EXPERIMENTAL_CONDITIONS: at 1 μg/mL; (Treatment/Virus) × 100, remaining activity

{"COMPOUND": "COc1ccc2cc3[n+](cc2c1OCCCCCNc1nc2ccccc2s1)CCc1cc2c(cc1-3)OCO2", "SCALE_UNIT": "%", "activity at 1 µg/mL": 30.4}
{"COMPOUND": "CCOC(=O)C1=C[C@@H](OC(CC)CC)[C@H](NC(C)=O)[C@@H](N)C1 [OSELTAMIVIR, Oseltamivir phosphate, reference compound]", "SCALE_UNIT": "%", "activity at 1 µg/mL": 29.1}
{"COMPOUND": "COc1ccc2cc3[n+](cc2c1OCCCCCNc1nc2c(F)cc(F)cc2s1)CCc1cc2c(cc1-3)OCO2", "SCALE_UNIT": "%", "activity at 1 µg/mL": 33.2}
{"COMPOUND": "COc1ccc2cc3[n+](cc2c1OCCCCCNc1nc2ccc(Cl)cc2s1)CCc1cc2c(cc1-3)OCO2", "SCALE_UNIT": "%", "activity at 1 µg/mL": 32.1}
